The measured values listed here are drawn from patent US20200216495A1.

Target: Tau40 P301L protein (human)
Test: cell-based or functional assay
Square brackets hold non-standard residues; d marks the D form. Ends that are not written are not given here.
Each item that follows carries a reported IC50, Tau40 assay (ThT).
Please state the figure in µM; there is no need to write the unit.

INSERT INTO results (binder, measuredvalue) VALUES
  ('[dL][dK][dI][dR][dI][dH][dA][dH] [lkirihah]', 6.41),
  ('[dW][dR][dH][dK][dV][dR][dW] [wrhkvrw]', 5.5);

Please find the next binder below.
INPUT: Which IC50, Tau40 assay (ThT) reading was recorded for the binder [dE][dR][dL][dR][dI][dH][dW] [erlrihw] ?
OUTPUT: 9.9
